Examples of binders with documented glycan array binding signal (z-score) follow.
system: Gal(b1-3)GlcNAc(b1-3)Gal(b1-4)Glc
test.name: glycan array binding signal (z-score within array); higher = stronger binding
test.conditions: glycan notation: IUPAC condensed, linker removed
The sample as a whole holds a higher share of the strongest signals than the screen did.
Give the figure only, with no unit attached.

| binder | recorded.result |
| --- | --- |
| DCAL1 (Homo sapiens), Q8IZS7 (protein) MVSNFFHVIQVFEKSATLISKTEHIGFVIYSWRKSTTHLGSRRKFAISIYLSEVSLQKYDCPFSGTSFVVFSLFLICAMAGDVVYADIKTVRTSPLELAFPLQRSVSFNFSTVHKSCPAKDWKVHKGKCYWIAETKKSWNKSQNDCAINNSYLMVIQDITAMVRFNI | -0.181 |

q: Please look at this binder and report its glycan array binding signal (z-score): rCnSL-proA (Clitocybe nebularis) (protein) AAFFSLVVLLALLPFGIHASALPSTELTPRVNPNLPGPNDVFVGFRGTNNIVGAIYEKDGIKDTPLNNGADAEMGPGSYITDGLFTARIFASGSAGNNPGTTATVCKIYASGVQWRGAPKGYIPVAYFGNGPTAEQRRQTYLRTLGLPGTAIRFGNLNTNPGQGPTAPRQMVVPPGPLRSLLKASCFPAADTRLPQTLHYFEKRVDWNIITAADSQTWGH
a: -0.329
